# MEASURED ON: porcine pancreatic elastase (Sus scrofa, UniProt P00772)
# Sequence (P00772 27-266): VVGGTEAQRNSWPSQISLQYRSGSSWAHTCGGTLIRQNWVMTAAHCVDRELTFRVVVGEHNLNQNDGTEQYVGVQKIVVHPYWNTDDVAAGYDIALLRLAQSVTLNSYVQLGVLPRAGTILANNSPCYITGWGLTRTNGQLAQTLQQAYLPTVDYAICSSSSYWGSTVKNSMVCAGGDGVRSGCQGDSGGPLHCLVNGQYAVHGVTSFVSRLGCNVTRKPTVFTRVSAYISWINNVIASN
Bridge positions count the residues as written; N and C are the ends. Square brackets hold non-standard residues; d marks the D form. Peptide text beside a SMILES is read from it. Hyp = O=C(O)[C@@H]1C[C@@H](O)CN1; Abu = CC[C@H](N)C(=O)O
EXPERIMENTAL READOUT: IC50

{"MOLECULE": "CC[C@H](C)[C@@H]1NC(=O)[C@@H]2CCCN2C(=O)[C@@H]2CCCN2C(=O)[C@H]([C@@H](C)CC)NC(=O)[C@H](CO)NC(=O)[C@H](C)NC(=O)[C@H]([C@@H](C)O)NC(=O)[C@H](C)NC(=O)[C@H](CC(C)C)NC(=O)CNC(=O)CNC(=O)[C@@H](N)CSSC[C@@H](C(=O)N[C@@H](CCC(N)=O)C(=O)O)NC1=O [EC16] (H-CGGLATASIPPICQ-OH; disulfide 1-13; N-terminus and C-terminus assumed)", "MEASURED ON": "porcine pancreatic elastase (Sus scrofa, UniProt P00772)", "RESULT": "> 50 µM"}
{"MOLECULE": "CC(C)C[C@H](N)C(=O)N[C@H]1CSSC[C@@H](C(=O)N[C@@H](CCCNC(=N)N)C(=O)O)NC(=O)[C@H]([C@@H](C)O)NC(=O)[C@@H]2CCCN2C(=O)[C@@H]2CCCN2C(=O)[C@H](CC(N)=O)NC(=O)[C@H](CO)NC(=O)[C@H](C)NC(=O)[C@H]([C@@H](C)O)NC1=O [EC28] (H-LCTASNPPTCR-OH; disulfide 2-10)", "MEASURED ON": "porcine pancreatic elastase (Sus scrofa, UniProt P00772)", "RESULT": "> 50 µM"}
{"MOLECULE": "CC[C@H](C)[C@H](N)C(=O)N[C@H]1CSSC[C@@H](C(=O)N[C@@H](CCC(N)=O)C(=O)O)NC(=O)[C@H]([C@@H](C)CC)NC(=O)[C@@H]2CCCN2C(=O)[C@@H]2C[C@@H](O)CN2C(=O)[C@H]([C@@H](C)CC)NC(=O)[C@H](CO)NC(=O)[C@H](C)NC(=O)[C@H]([C@@H](C)O)NC1=O [EC47] (H-ICTASI[Hyp]PICQ-OH; disulfide 2-10; C-terminus assumed)", "MEASURED ON": "porcine pancreatic elastase (Sus scrofa, UniProt P00772)", "RESULT": "0.4 µM"}
{"MOLECULE": "CC[C@H](C)[C@@H]1NC(=O)[C@H](CO)NC(=O)[C@H](C)NC(=O)[C@H]([C@@H](C)O)NC(=O)[C@H](C)NC(=O)[C@H](CC(C)C)NC(=O)[C@@H](N)CSSC[C@@H](C(=O)N[C@@H](Cc2ccc(O)cc2)C(=O)O)NC(=O)[C@H](CCC(N)=O)NC(=O)[C@@H]2CCCN2C(=O)[C@@H]2CCCN2C1=O [EC5] (H-CLATASIPPQCY-OH; disulfide 1-11; N-terminus and C-terminus assumed)", "MEASURED ON": "porcine pancreatic elastase (Sus scrofa, UniProt P00772)", "RESULT": "> 50 µM"}
{"MOLECULE": "CC[C@@H]1NC(=O)[C@H]([C@@H](C)CC)NC(=O)CNC(=O)[C@@H](N)CSSC[C@@H](C(=O)N[C@@H](CCC(N)=O)C(=O)O)NC(=O)[C@H]([C@@H](C)CC)NC(=O)[C@@H]2CCCN2C(=O)[C@@H]2CCCN2C(=O)[C@H]([C@@H](C)CC)NC(=O)[C@H](CO)NC(=O)[C@H](C)NC(=O)[C@H]([C@@H](C)O)NC1=O [EC31] (H-CGI[Abu]TASIPPICQ-OH; disulfide 1-12)", "MEASURED ON": "porcine pancreatic elastase (Sus scrofa, UniProt P00772)", "RESULT": "> 50 µM"}

The values you see were collected from patent US20230416329A1.
